Biological target: PI3K-γ kinase (p110γ) (Homo sapiens)
Construct: purchased Invitrogen PV4786
Sequence (P48736 whole entry): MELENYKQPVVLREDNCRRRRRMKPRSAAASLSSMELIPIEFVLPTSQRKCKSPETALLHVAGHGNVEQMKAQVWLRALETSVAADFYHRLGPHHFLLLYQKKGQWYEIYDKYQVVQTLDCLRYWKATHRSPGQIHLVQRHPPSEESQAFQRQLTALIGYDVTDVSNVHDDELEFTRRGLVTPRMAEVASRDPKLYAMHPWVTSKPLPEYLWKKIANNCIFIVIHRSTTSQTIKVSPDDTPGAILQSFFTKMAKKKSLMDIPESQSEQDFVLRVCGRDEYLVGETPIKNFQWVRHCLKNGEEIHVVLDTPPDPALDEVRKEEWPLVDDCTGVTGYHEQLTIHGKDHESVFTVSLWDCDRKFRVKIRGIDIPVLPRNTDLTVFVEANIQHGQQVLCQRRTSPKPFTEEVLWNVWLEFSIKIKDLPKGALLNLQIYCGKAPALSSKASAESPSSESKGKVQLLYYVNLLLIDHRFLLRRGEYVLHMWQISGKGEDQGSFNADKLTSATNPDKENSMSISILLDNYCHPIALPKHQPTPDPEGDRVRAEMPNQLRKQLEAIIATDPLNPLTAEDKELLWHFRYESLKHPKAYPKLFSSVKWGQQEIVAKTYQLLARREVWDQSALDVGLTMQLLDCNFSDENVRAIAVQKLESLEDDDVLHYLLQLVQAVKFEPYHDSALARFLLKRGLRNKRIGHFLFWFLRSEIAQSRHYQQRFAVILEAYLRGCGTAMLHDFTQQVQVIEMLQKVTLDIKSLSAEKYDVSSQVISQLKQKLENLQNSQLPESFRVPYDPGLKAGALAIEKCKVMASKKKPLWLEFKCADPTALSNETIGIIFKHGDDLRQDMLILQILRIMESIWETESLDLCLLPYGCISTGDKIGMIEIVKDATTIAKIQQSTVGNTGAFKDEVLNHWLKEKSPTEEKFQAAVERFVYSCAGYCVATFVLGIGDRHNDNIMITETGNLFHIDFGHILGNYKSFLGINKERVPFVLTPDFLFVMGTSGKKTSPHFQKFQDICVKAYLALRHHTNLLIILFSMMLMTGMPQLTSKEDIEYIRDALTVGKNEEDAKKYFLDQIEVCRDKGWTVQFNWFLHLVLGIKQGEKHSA
Experiment: Determination of PI3K kinase activity (ADP Transcreener, fluorescence polarization)
Format: biochemical
Settings: Table 1; ATP 10 μM; read-out: PI3K-γ/nM (IC50 of inhibitory activity against PI3K kinase)
Task for the reader: assign each of the following compounds its reported IC50.
# unit: nM | format: bare number

According to the records, this compound `CS(=O)(=O)C1(c2cc(-c3cnc(N)cc3Cl)nc(N3CCOCC3)n2)CC1` displays IC50 of 114

For record `COC(C)(C)c1cc(-c2cnc(N)cc2Cl)nc(N2CCOC[C@@H]2C)n1` the listed IC50 is 654

IC50 measured on `Nc1cc(Cl)c(-c2cc(C3(S(=O)(=O)c4ccccc4F)CC3)nc(N3CCOCC3)n2)cn1` = 160

IC50 measured on `CC(C)S(=O)(=O)C1(c2cc(-c3cnc(N)cc3F)nc(N3CCOCC3)n2)CC1` = 192

Entry `C[C@@H]1COCCN1c1nc(-c2cnc(N)cc2C(F)(F)F)cc(C(C)(C)O)n1` , IC50 reported as 1150

For record `Nc1cc(C(F)(F)F)c(-c2cc(C3(S(=O)(=O)c4ccccc4F)CC3)nc(N3CCOCC3)n2)cn1` the listed IC50 is 121

Notebook: `CS(=O)(=O)C(F)(F)c1cc(-c2cnc(N)cc2Cl)nc(N2CCOCC2)n1` , IC50 read as 199

// sample `CC(C)S(=O)(=O)C(C)(C)c1cc(-c2cnc(N)cc2C(F)(F)F)nc(N2CCOCC2)n1` , its IC50 was 2120
